target: Homeobox protein Hox-A13 (Mus musculus); assay: inhibitors of HoxA13-DNA binding, primary screen, biochemical, fluorescence polarization, labeled oligonucleotide (AID 1185); conditions: 15 min, higher = more signal, called active from +8 up or from −8 down
Hi, to clarify the labels: Y covers z-score from -4 upward, N covers anything below -4.

See these solved cases before continuing.
1. C#CCCCON=C1C[C@@H](O)[C@@H](O)[C@@H]2[C@@H]3C(=O)N(CC)C(=O)[C@@H]3CC[C@H]12
Y
2. COc1ccc(COC(=O)NN=C2C[C@@H](O)[C@@H](O)[C@@H]3[C@@H]4C(=O)N(c5cccc(Oc6ccccc6)c5)C(=O)[C@@H]4CC[C@H]23)cc1
Y
3. COc1ccc(O[C@H]2C=C[C@@H](c3ccccc3)O[C@@H]2CON=C(C)CCN2CCCc3nc(C)c(C)cc32)cc1
N
4. COC(=O)[C@@H]1CC[C@H](C)[C@@H](c2ccc(Br)cc2)N1C[C@H](O)CN=[N+]=[N-]
Y

# input Is the recorded value of z-score equal to or greater than -4 for this compound? CC(CCN1CCc2nc(-c3ccccc3)c(-c3ccccc3)cc2C1)=NOC(C)CN1CCCc2nc(C)c(C)cc21 (configuration not stated)
# output N

# input Is the recorded value of z-score equal to or greater than -4 for this compound? C[C@@H](c1ccccc1)N1C(=O)[C@H]2[C@H]3[C@H](O)[C@H](O)CC(=NOCc4ccccc4)[C@@H]3CC[C@H]2C1=O
# output Y

# input Is the recorded value of z-score equal to or greater than -4 for this compound? CCOC(=O)[C@H](CC(C)C)NC(=O)CCC1CC(OC(=O)NCCc2ccc(F)cc2)CC2(CCCC(COC(=O)NCc3cccc(C(F)(F)F)c3)O2)O1 (some centres not stated)
# output N

Measured values drawn from PubChem BioAssay for this set.
